target: Influenza Hemagglutinin A (influenza A virus); assay: ELISA on Influenza Hemagglutinin A (1 ug/mL); 293 supernatant diluted 1:10
recorded-endpoint: ELISA signal

Guide cases for ELISA signal, answers given:
F2-02 (VHH) VHH: QVQLVESGGGLVQAGGSLRLSCAASGRTFRSFAMGWFRQAPGKEREFVATISWWSNNTYYADSVKGRFTISRDIAKNTVYLQMNSLKPEDTAVYYCAADLGPWLTAGQYDYWGQGTQVTVSS	1.21
F2-20 (VHH) VHH: QVQLVESGGGLVQAGGSLRLSCAASGRTFSRYAMGWFRQAPGKEREFVARISWSGDITYYADSVKGRFTISRDNAKNTVYLQMNSLKPEDTAVYYCAADAILRTRPPYESDYWGQGTQVTVSS	0.884
F2-24 (VHH) VHH: QVQLVESGGGLVQAGGSLRLSCASSGHTFNSYVMGWFRQAPGKEREFVAAIRPSGVSTYYADSVKGRFTISRDNAKNTVSLEMNSLKPEDTAVYYCAGDRDHSMMAVRRLSSYRQWGRGTQVTVSS	0.444

Turning now to a further record.
If you can, please state the reported ELISA signal value of F1-04 (VHH) VHH: QVQLVESGGGLVQVGGSLRLSCAASERPSSNYAMGWFRQAPGKEQEFVAAIYWSGGGTAYGDSVKGRFTISKDNAKNTVYLQMNDLKPEDTGMYYCTTDHYGSWSYEYGSWGQGTQVTVSS .
1.76
